Measured pKd accompanies every entry in the list below.
Biological target: BRPF1 (Homo sapiens, UniProt P55201)
Sequence (P55201 628-732 limits assumed): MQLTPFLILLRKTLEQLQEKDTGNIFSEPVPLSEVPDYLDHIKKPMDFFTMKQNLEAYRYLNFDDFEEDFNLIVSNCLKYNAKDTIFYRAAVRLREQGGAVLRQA
Experiment: BROMOscan DiscoveRx Binding Constant Assay (BRPF1)
Conditions: qPCR readout
pKd: −log10 of the molar value.
Observation Type: pKd

- Compound: "CCCOc1cc(OCCCCCCN)cc(Oc2cc3c(cc2NS(=O)(=O)c2cn(C)cn2)n(C)c(=O)n3C)c1 [Example 8, 2,2,2-trifluoroacetate]"
  Target Or System: "BRPF1 (Homo sapiens, UniProt P55201)"
  Observation Type: "pKd"
  Result: "8.00 to 9.00"
- Compound: "Cn1c(=O)n(C)c2cc(Oc3cccc(OCC(F)(F)F)c3)c(NS(=O)(=O)c3cccnc3)cc21"
  Target Or System: "BRPF1 (Homo sapiens, UniProt P55201)"
  Observation Type: "pKd"
  Result: "8.00 to 9.00"
- Compound: "COCCCOc1cccc(Oc2cc3c(cc2NS(=O)(=O)c2cn(C)c(C)n2)n(C)c(=O)n3C)c1"
  Target Or System: "BRPF1 (Homo sapiens, UniProt P55201)"
  Observation Type: "pKd"
  Result: "7.00 to 7.96"
- Compound: "Cc1nc(S(=O)(=O)Nc2cc3c(cc2Oc2cccc(OCC(C)C)c2)n(C)c(=O)n3C)cn1C"
  Target Or System: "BRPF1 (Homo sapiens, UniProt P55201)"
  Observation Type: "pKd"
  Result: "7.00 to 7.96"
- Compound: "CCCOc1cccc(Oc2cc3c(cc2NS(=O)(=O)c2ccc(OC)c(OC)c2)n(C)c(=O)n3C)c1"
  Target Or System: "BRPF1 (Homo sapiens, UniProt P55201)"
  Observation Type: "pKd"
  Result: "8.00 to 9.00"
